test system: Streptococcus Pneumonia 5979
t if MIC is below 2 mg/L. f if not; exact matches included in f.

Q: Criterion: MIC strictly below 2 mg/L. Is it met by CC[C@H]1OC(=O)[C@H](C)C(=O)[C@H](C)[C@@H](O[C@@H]2O[C@H](C)C[C@H](N(C)C)[C@H]2O)[C@](C)(OC/C=C/c2ccc(-c3ccccn3)s2)C[C@@H](C)C(=O)[C@H](C)[C@H]2NC(=O)O[C@@]21C [Example 75] ?
Ans: t

Q: In plain terms, does CC[C@H]1OC(=O)[C@H](C)C(=O)[C@H](C)[C@@H](O[C@@H]2O[C@H](C)C[C@H](N(C)C)[C@H]2O)[C@](C)(OCC#Cc2ccc(-c3cscn3)s2)C[C@@H](C)C(=O)[C@H](C)[C@H]2NC(=O)O[C@@]21C [Example 30] come in under 2 mg/L for MIC?
Ans: t

Q: Quick check: does CC[C@H]1OC(=O)[C@H](C)C(=O)[C@H](C)[C@@H](O[C@@H]2O[C@H](C)C[C@H](N(C)C)[C@H]2O)[C@](C)(OC/C=C/c2ccc(-c3cnc(N)s3)s2)C[C@@H](C)C(=O)[C@H](C)[C@H]2NC(=O)O[C@@]21C [Example 53] have MIC under 2 mg/L?
Ans: f

Q: Check if MIC falls below 2 mg/L for CC[C@H]1OC(=O)[C@H](C)C(=O)[C@H](C)[C@@H](O[C@@H]2O[C@H](C)C[C@H](N(C)C)[C@H]2O)[C@](C)(OCC#Cc2ccc(-c3cncc(C(=O)N(C)C)c3)s2)C[C@@H](C)C(=O)[C@H](C)[C@H]2NC(=O)O[C@@]21C [Example 11] .
Ans: f

Q: Bench note: check whether CC[C@H]1OC(=O)[C@H](C)C(=O)[C@H](C)[C@@H](O[C@@H]2O[C@H](C)C[C@H](N(C)C)[C@H]2O)[C@](C)(OC/C=C/c2cnc(-c3cncnc3)s2)C[C@@H](C)C(=O)[C@H](C)[C@H]2NC(=O)O[C@@]21C [Example 59] shows MIC below 2 mg/L
Ans: f

Q: # TODO verify MIC < 2 mg/L strictly for this compound: CC[C@H]1OC(=O)[C@H](C)C(=O)[C@H](C)[C@@H](O[C@@H]2O[C@H](C)C[C@H](N(C)C)[C@H]2O)[C@](C)(OCC#Cc2ccc(-c3ccccc3)s2)C[C@@H](C)C(=O)[C@H](C)[C@H]2NC(=O)O[C@@]21C [Example 13]
Ans: f

Q: Does CC[C@H]1OC(=O)[C@H](C)C(=O)[C@H](C)[C@@H](O[C@@H]2O[C@H](C)C[C@H](N(C)C)[C@H]2O)[C@](C)(OC/C=C/c2cnc(-c3cnccn3)s2)C[C@@H](C)C(=O)[C@H](C)[C@H]2NC(=O)O[C@@]21C [Example 58] have MIC strictly under 2 mg/L?
Ans: f

Q: Could you please tell me whether MIC recorded for CCOC(=O)c1cncc(-c2ccc(C#CCO[C@]3(C)C[C@@H](C)C(=O)[C@H](C)[C@H]4NC(=O)O[C@]4(C)[C@@H](CC)OC(=O)[C@H](C)C(=O)[C@H](C)[C@H]3O[C@@H]3O[C@H](C)C[C@H](N(C)C)[C@H]3O)s2)c1 [Example 10] is less than 2 mg/L?
Ans: f

Q: Report whether reported MIC is lower than 2 mg/L (strictly) for CC[C@H]1OC(=O)[C@H](C)C(=O)[C@H](C)[C@@H](O[C@@H]2O[C@H](C)C[C@H](N(C)C)[C@H]2O)[C@](C)(OCC#Cc2ccc(-c3ccccn3)s2)C[C@@H](C)C2=NCCN3C(=O)O[C@@]1(C)[C@H]3[C@H]2C [Example 35]
Ans: f

Q: Below 2 mg/L on MIC? Entry CC[C@H]1OC(=O)[C@H](C)C(=O)[C@H](C)[C@@H](O[C@@H]2O[C@H](C)C[C@H](N(C)C)[C@H]2O)[C@](C)(OC/C=C/c2cnc(-c3cccs3)s2)C[C@@H](C)C(=O)[C@H](C)[C@H]2NC(=O)O[C@@]21C [Example 57]
Ans: t

Q: Would you kindly verify if MIC of CC[C@H]1OC(=O)[C@H](C)C(=O)[C@H](C)[C@@H](O[C@@H]2O[C@H](C)C[C@H](N(C)C)[C@H]2O)[C@](C)(OC/C=C/c2ccc(-c3cccc(F)c3)s2)C[C@@H](C)C(=O)[C@H](C)[C@H]2NC(=O)O[C@@]21C [Example 72] is strictly less than 2 mg/L?
Ans: f

Q: Given CC[C@H]1OC(=O)[C@H](C)C(=O)[C@H](C)[C@@H](O[C@@H]2O[C@H](C)C[C@H](N(C)C)[C@H]2O)[C@](C)(OCC#Cc2ccc(-c3cccc(F)c3)s2)C[C@@H](C)C(=O)[C@H](C)[C@H]2NC(=O)O[C@@]21C [Example 15] , is recorded MIC strictly lower than 2 mg/L?
Ans: t
